Molecular target: Beta Secretase enzyme (BACE) (Homo sapiens, UniProt P56817)
Sequence (P56817 46-501): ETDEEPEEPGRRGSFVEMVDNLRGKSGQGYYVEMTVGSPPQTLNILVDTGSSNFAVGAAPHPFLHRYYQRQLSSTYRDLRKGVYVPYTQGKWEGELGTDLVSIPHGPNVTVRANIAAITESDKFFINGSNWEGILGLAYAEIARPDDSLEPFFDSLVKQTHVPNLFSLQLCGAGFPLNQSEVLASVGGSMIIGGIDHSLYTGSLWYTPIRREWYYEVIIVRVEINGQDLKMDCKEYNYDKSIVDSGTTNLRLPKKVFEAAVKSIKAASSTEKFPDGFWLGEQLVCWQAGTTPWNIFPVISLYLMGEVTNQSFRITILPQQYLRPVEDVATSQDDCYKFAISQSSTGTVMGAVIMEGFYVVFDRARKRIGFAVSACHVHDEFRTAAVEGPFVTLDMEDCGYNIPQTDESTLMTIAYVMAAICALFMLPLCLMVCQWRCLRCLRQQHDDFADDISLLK
Test: In vitro enzymatic BACE FRET (fluorescence resonance energy transfer) assay
Type: biochemical
Conditions: BACE enzyme assay; read-out: BACE1 FRET assay (IC50)
measured.quantity: pIC50
Numbers only, as −log10 of the molar value.

CNc1nc(CC(C)(C)C)cc2c1OC1(CCC1)C[C@@H]2NC[C@@H](O)[C@H](Cc1ccccc1)NC(=O)COC = 7.52
CC(=O)N[C@@H](Cc1ccc(F)cc1)[C@H](O)CN[C@H]1C[C@@]2(CC[C@H]2O)Oc2ncc(CC(C)(C)C)cc21 = 6.93
COC(C(=O)N[C@@H](Cc1cccc(F)c1)[C@H](O)CN[C@H]1CC2(CCC2)Oc2ncc(CC(C)(C)C)cc21)C(F)(F)F (stereo partly drawn) = 7.47
CNc1nc(CC(C)(C)C)cc2c1OC1(CCC1)C[C@@H]2N(C)C[C@@H](O)[C@H](Cc1ccc2c(c1)OCO2)NC(=O)[C@@H](C)OC = 6.53
COCC(=O)N[C@@H](Cc1ccc2c(c1)OCO2)[C@H](O)CN[C@H]1CC2(CCC2)Oc2cnc(CC(C)(C)C)cc21 = 6.69

Each compound below has a reported value. Please supply its pIC50.
1. CC(C)(C)Cc1cnc2c(c1)[C@@H](NC[C@@H](O)[C@H](Cc1ccc3c(c1)OCO3)NC(=O)C(C)(Cl)Cl)CC1(CCC1)O2
2. CC(C)(C)Cc1cnc2c(c1)[C@@H](NC[C@@H](O)[C@H](Cc1cccc(F)c1)NC(=O)C(F)(F)Cl)CC1(CCC1)O2
3. COCC(=O)N[C@@H](Cc1ccc2c(c1)OCO2)[C@H](O)CN[C@H]1CC2(CCC2)Cc2ncc(CC(C)(C)C)cc21
4. CNc1nc(CC(C)(C)C)cc2c1OC1(CCC1)C[C@@H]2NC[C@@H](O)[C@H](Cc1ccc2c(c1)OCO2)NC(=O)COC
5. CC(C)(C)Cc1cnc2c(c1)[C@@H](NC[C@@H](O)[C@H](Cc1ccc3c(c1)OCO3)NC(=O)OCc1cncs1)CC1(CCC1)O2
6. CC(C)(C)[C@@H](F)c1cnc2c(c1)[C@@H](NC[C@@H](O)[C@H](Cc1ccc3c(c1)OCO3)NC(=O)CF)CC1(CCC1)O2
7. CC(C)(C)Cc1cnc2c(c1)[C@@H](NC[C@@H](O)[C@H](Cc1cccc(F)c1)NC(=O)C1CN(C3CCC3)C(=O)C1(C)C)CC1(CCC1)O2 (stereo partly drawn)

Given back:
[6.27, 8.30, 6.83, 7.24, 6.80, 7.73, 7.36]

###

Kindly state IC50 for each of the entries shown.
Target: Beta Secretase enzyme (BACE) (Homo sapiens, UniProt P56817)
Assay: In vitro enzymatic BACE FRET (fluorescence resonance energy transfer) assay;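 also: fluorescence read after 1 h with 50 nM quenched peptide substrate spanning the BACE cleavage site, in pH 4.2 acetate buffer containing 10% DMSO and nonionic detergent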
Assay type: biochemical
Conditions: BACE enzyme assay IC50; read-out: BACE1 FRET assay
Give bare numbers, in µM.

Use these answered entries as a reference point.
COCC(=O)N[C@@H](Cc1cc(F)cc(-c2nccs2)c1)[C@H](O)CN[C@H]1CC2(CCC2)Oc2cnc(CC(C)(C)F)cc21 = 0.051
CN1CCO[C@H](C(=O)N[C@@H](Cc2ccc(F)cc2)[C@H](O)CN[C@H]2CC3(CCC3)Oc3ncc(CC(C)(C)C)cc32)C1 = 0.372

Let us examine a further case.
Memo: CO[C@H](C)C(=O)N[C@@H](Cc1cc(F)cc(-c2nccs2)c1)[C@H](O)CN[C@H]1CC2(CCC2)Oc2c1cc(CC(C)C)nc2Cl , reported IC50: 0.009

###

Experiment: Microsomal stability assay, human liver microsomes;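 also: pooled human liver microsomes at 0.25 mg/mL with 1 µM compound and NADPH at 37 °C, pH 7.4, for 30 min, unchanged parent quantified by LC-MS/MS against the 0 min sample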
Settings: human liver microsomes
measured.quantity: HLM (µL/min/mg)
Numbers only, in µL/min/mg.

COCC(=O)N[C@@H](Cc1ccc(F)c(-c2ncc(C)s2)c1)[C@H](O)CN[C@H]1CC2(CCC2)Oc2ncc(CC(C)(C)C)cc21 = 371

Each molecule below has a reported value. Please supply its HLM.
1. COCC(=O)N[C@@H](Cc1ccc(F)c(-c2nccs2)c1)[C@H](O)CN[C@H]1CC2(CCC2)Oc2ncc(CC(C)C)cc21
2. COCC(=O)N[C@@H](Cc1cc(F)cc(F)c1)[C@H](O)CN[C@H]1CC2(CCC2)Oc2c1cc(CC(C)(C)C)nc2-c1cncn1C
3. CC(=O)N[C@@H](Cc1cccc(F)c1)[C@H](O)CN[C@H]1CC2(CCC2)Oc2c(-c3ccncc3)cc(CC(C)(C)C)cc21

Given back:
1. 45
2. 22
3. 14

###

Molecular target: Beta Secretase enzyme (BACE) (Homo sapiens)
Assay: In vitro enzymatic BACE FRET (fluorescence resonance energy transfer) assay
Type: biochemical
Details: BACE enzyme assay; read-out: BACE1 FRET assay (IC50)
Kindly state pIC50 for each of the entries shown.
Numbers only, as −log10 of the molar value.

Use these answered entries as a reference point.
CCC(=O)Nc1cnc2c(c1)[C@@H](NC[C@@H](O)[C@H](Cc1ccc(F)cc1)NC(C)=O)CC1(CCC1)O2 [compound 85] = 6.05
COCCNc1nc(CC(C)(C)C)cc2c1OC1(CCC1)C[C@@H]2NC[C@@H](O)[C@H](Cc1ccc(F)cc1)NC(=O)COC [compound 150] = 7.32
CO[C@H](C)C(=O)N[C@@H](Cc1cccc(C#N)c1)[C@H](O)CN[C@H]1CC2(CCC2)Oc2ncc(CC(C)(C)C)cc21 [compound 56] = 8.58
CC(=O)N[C@@H](Cc1ccc(F)cc1)[C@H](O)CN[C@H]1C[C@@]2(CC[C@@H]2O)Oc2ncc(CC(C)(C)C)cc21 [compound 114] = 5.80
CC(F)(F)Oc1cnc2c(c1)[C@@H](NC[C@@H](O)[C@H](Cc1cccc(F)c1)NC(=O)[C@@H]1CCC(=O)O1)CC1(CCC1)O2 [compound 152] = 7.97

Let us examine a further case.
Memo: COCC(=O)N[C@@H](Cc1ccc2c(c1)OCO2)[C@H](O)CN[C@H]1CC2(CCC2)Oc2ncc([C@H](F)C(C)(C)C)cc21 [compound 183] , reported pIC50: 8.06

###

Target: CYP3A4 (CYP3A) (Homo sapiens, UniProt P08684);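 also: inhibition of CYP3A-mediated 1-hydroxymidazolam formation after 10 min incubation with NADPH, quantified by HPLC MS relative to metabolite produced without test compound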
Sequence (P08684 2-503): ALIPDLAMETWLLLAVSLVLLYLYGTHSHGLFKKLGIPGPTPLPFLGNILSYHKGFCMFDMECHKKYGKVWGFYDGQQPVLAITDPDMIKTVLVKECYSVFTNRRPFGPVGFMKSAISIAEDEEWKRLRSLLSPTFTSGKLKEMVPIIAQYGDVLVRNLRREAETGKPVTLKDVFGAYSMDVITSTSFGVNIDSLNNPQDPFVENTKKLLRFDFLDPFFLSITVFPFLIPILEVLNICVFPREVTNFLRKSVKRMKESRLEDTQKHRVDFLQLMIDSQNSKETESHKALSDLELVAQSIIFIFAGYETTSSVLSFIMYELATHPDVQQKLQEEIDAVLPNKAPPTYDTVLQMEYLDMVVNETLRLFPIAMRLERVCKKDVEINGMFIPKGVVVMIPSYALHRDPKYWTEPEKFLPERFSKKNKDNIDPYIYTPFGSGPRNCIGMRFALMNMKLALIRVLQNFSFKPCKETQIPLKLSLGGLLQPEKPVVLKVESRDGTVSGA
Test: in vitro
Settings: microsomes, pH 7.4
# note: boundary value 300 nM maps to NO; IC50 below it maps to YES

CC1(C)C[C@H]1c1cnc2c(c1)[C@@H](NC[C@@H](O)[C@H](Cc1cccc(-c3nccs3)c1)NC(=O)[C@@H]1CCCO1)CC1(CCC1)O2 [compound 907] = YES

Asked: Dear colleague, could you confirm whether IC50 of COCC(=O)N[C@@H](Cc1ccc(F)cc1)[C@H](O)CN[C@H]1CC(C)(C)Oc2ncc(CC(C)(C)C)cc21 [compound 663] falls below 300 nM? Thanks.
Given back: NO

Asked: Dear colleague, could you confirm whether IC50 of CC(=O)N[C@@H](Cc1ccc(F)c(-c2cccnc2)c1)[C@H](O)CN[C@H]1CC2(CCC2)Oc2ccc(CC(C)(C)C)cc21 [compound 648] falls below 300 nM? Thanks.
Given back: YES

Asked: Dear colleague, could you confirm whether IC50 of CO[C@H](C)C(=O)N[C@@H](Cc1cccc(F)c1)[C@H](O)CN[C@H]1CC2(CCC2)Oc2c(-c3cscn3)cc(CC(C)C)cc21 [compound 524] falls below 300 nM? Thanks.
Given back: NO

###

Details: human, microsomes, 1 μM, pH 7.4
# note: boundary value 40 µL/min/mg maps to rule not met; HLM below it maps to rule met

Examples from the recorded data:
COCC(=O)N[C@@H](Cc1cccc(-c2nccs2)c1)[C@H](O)CN[C@H]1C[C@@]2(CCOC2)Oc2ncc(CC(C)(C)C)cc21 [compound 823] = rule not met
COCC(=O)N[C@@H](Cc1cc(F)cc(F)c1)[C@H](O)CN[C@H]1CC2(CCC2)Oc2c1cc([C@H]1CC1(C)C)nc2-c1ccncc1 [compound 678] = rule met
COCC(=O)N[C@@H](Cc1cccc(-c2nccs2)c1)[C@H](O)CN[C@H]1C[C@]2(CCOC2)Oc2ncc(CC(C)(C)C)cc21 [compound 845] = rule not met
C#Cc1cccc(C[C@H](NC(=O)COC)[C@H](O)CN[C@H]2C[C@]3(CCOC3)Oc3ncc(CC(C)(C)C)cc32)c1 [compound 824] = rule met

Shift focus to the following entry.
Asked: Dear colleague, could you confirm whether HLM of COCC(=O)N[C@@H](Cc1cccc(-c2nccs2)c1)[C@H](O)CN[C@H]1C[C@]2(CCOC2)Oc2ncc(CC(C)(C)C)cc21 [compound 822] falls below 40 µL/min/mg? Thanks.
Given back: rule not met

###

Tested on: Aβ40 in conditioned medium of cells stably expressing Amyloid Precursor Protein (APP)
Experiment: In vitro BACE cell-based assay (Aβ40 in conditioned medium, sandwich ELISA);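 also: compounds added as a dilution series, secreted peptide quantified by europium time-resolved fluorescence readout, potency fitted from percent of control versus compound concentration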
Conditions: Homo sapiens, HEK293, HEK cell-based assay, IC50's in uM; read-out: HEK cell assay
measured.quantity: log10 IC50 (log10 of the value in µM)
Parameter value (number): base-10 log of IC50 in µM.

Each compound below has a reported value. Please supply its log10 IC50.
1. COCC(=O)N[C@@H](Cc1cccc(-c2nccs2)c1)[C@H](O)CN[C@H]1CC2(CCC2)Oc2ncc(CC(C)C)cc21 [Example 757]
2. COC(OC)C(=O)N[C@@H](Cc1cccc(-c2ncco2)c1)[C@H](O)CN[C@H]1CC2(CCC2)Oc2ncc(CC(C)(C)C)cc21 [Example 826]
3. C#Cc1cc(F)cc(C[C@H](NC(=O)[C@@H](C)OC)[C@H](O)CN[C@H]2CC3(CCC3)Oc3ncc(CC(C)C)cc32)c1 [Example 835]
4. CO[C@H](C)C(=O)N[C@@H](Cc1cccc(-c2ncco2)c1)[C@H](O)CN[C@H]1CC2(CCC2)Oc2ncc(CC(C)(C)C)cc21 [Example 836]
5. CO[C@H](C)C(=O)N[C@@H](Cc1cncs1)[C@H](O)CN[C@H]1CC2(CCC2)Oc2ncc([C@@H]3CC3(C)C)cc21 [compound 794]

Given back:
-1.74
-1.89
-1.59
-1.82
-2.05

Record COCC(=O)N[C@@H](Cc1ccc2c(c1)OCO2)[C@H](O)CN[C@H]1CC2(CCC2)Oc2c(-c3ccccn3)cc(CC(C)C)cc21 [compound 767] / Aβ40 in conditioned medium of cells stably expressing Amyloid Precursor Protein (APP), log10 IC50 recorded as -0.60
